Quick record: IC50, HDAC-1 (Homo sapiens, UniProt Q13547).
All answers are understood in nM, so give the number only.

The cases that follow already have their IC50 on record.
O=C(/C=C/c1ccc([C@@H]2CCCN2CCc2c(C(F)(F)F)nn3ccccc23)cc1)NO    3
Cc1[nH]c2ccccc2c1CCN1CCNCC1c1ccc(/C=C/C(=O)NO)cc1 (stereo not drawn)    7
COc1ccc2[nH]c(C)c(CCN3CCCC3c3ccc(/C=C/C(=O)NO)cc3)c2c1 (stereo not drawn)    2

I have this molecule here, O=C(/C=C/c1ccc(C2CCCN2CCn2ccc3ccccc32)cc1)NO (stereo not drawn) , and I need its recorded IC50.
6

Try O=C(/C=C/c1ccc(C2CCCN2CC(O)c2ccc(Cl)cc2)cc1)NO (stereo not drawn) next.
5

Try O=C(/C=C/c1ccc(C2CCCN2CCc2c(-c3ccccc3)[nH]c3ccccc23)cc1)NO (stereo not drawn) next.
12

Try Cc1[nH]c2ccccc2c1CCN1CCN(C)CC1c1ccc(/C=C/C(=O)NO)cc1 (stereo not drawn) next.
9

Try `Cc1oc(-c2ccccc2)nc1CCN1CCC[C@H]1c1ccc(/C=C/C(=O)NO)cc1` next.
1.4

Try `Cc1c(CC(C)(C)C)nn(CCN2CCC[C@H]2c2ccc(/C=C/C(=O)NO)cc2)c1O` next.
40

Try `O=C(/C=C/c1ccc([C@@H]2CCCN2CCc2cn[nH]c2)cc1)NO` next.
7

Try `Cc1nn(C(C)(C)C)c(C)c1CCN1CCC[C@H]1c1ccc(/C=C/C(=O)NO)cc1` next.
7

Try O=C(/C=C/c1ccc(C2CCCN2CC(O)c2ccccc2)cc1)NO (stereo not drawn) next.
25

Try O=C(/C=C/c1ccc(C2CCCN2CCc2ccc(Cl)c(Cl)c2)cc1)NO (stereo not drawn) next.
19

Try Cc1[nH]c2ccccc2c1CCN1CCN(C(=O)OC(C)(C)C)CC1c1ccc(/C=C/C(=O)NO)cc1 (stereo not drawn) next.
35

Try `C[Si](C)(C)Cn1cc(CCN2CCC[C@H]2c2ccc(/C=C/C(=O)NO)cc2)nn1` next.
25

Try `O=C(/C=C/c1ccc([C@@H]2CCCN2CCS(=O)(=O)c2ccccc2)cc1)NO` next.
36

Try O=C(/C=C/c1ccc(C2CCCN2CCc2ccccc2)cc1)NO (stereo not drawn) next.
3

Try `CCc1n[nH]c(CC)c1CCN1CCC[C@H]1c1ccc(/C=C/C(=O)NO)cc1` next.
0.8
